Property: pKd; scope: individual binders
Target: T1, cynoNectin4-mFc (cyno, UniProt A0A2K5WES1 32-349)
T1 construct: Immobilized on the SPR chip; also called cyanoNectin4; not shown: mFc (mouse Fc)
T1 sequence: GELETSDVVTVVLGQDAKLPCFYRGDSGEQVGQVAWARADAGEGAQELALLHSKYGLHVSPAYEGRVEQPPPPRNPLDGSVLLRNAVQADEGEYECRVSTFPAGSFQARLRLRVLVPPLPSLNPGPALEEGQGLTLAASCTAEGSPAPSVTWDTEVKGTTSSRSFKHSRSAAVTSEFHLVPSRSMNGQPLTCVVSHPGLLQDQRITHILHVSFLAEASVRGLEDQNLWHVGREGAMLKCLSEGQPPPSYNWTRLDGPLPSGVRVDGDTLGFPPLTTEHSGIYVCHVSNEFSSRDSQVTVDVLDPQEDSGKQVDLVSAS
Test: SPR, cynoNectin4-mFc immobilized, pH 6.5
Bear in mind: pKd is minus log10 of a mol/L concentration; give just that figure.

GET /value?item= BAP-143-00-06 (antibody, V domains shown, Used as a conjugate with a linker payload (CAB ADC)) VH: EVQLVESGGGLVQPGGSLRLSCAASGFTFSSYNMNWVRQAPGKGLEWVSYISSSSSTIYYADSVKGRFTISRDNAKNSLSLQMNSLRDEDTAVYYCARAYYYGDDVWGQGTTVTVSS VL: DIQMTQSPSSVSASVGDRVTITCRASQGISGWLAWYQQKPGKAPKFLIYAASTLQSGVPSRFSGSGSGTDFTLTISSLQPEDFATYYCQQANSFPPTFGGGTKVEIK &field=pKd returns 9.40

GET /value?item= BAP-143-00-04 (antibody, V domains shown, Used as a conjugate with a linker payload (CAB ADC)) VH: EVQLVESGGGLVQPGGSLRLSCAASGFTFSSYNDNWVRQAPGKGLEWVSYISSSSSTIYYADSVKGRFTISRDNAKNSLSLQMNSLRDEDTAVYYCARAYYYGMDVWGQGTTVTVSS VL: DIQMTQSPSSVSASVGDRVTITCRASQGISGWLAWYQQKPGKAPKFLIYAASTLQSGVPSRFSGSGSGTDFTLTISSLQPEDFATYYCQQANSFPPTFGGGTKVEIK &field=pKd returns 8.95

GET /value?item= BAP-143-00-05 (antibody, V domains shown, Used as a conjugate with a linker payload (CAB ADC)) VH: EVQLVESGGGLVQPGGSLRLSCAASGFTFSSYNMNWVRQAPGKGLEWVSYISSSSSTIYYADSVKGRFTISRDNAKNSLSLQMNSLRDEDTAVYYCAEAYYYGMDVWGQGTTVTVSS VL: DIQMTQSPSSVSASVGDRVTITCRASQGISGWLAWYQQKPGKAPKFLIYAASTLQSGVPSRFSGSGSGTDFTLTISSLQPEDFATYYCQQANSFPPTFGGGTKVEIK &field=pKd returns 8.40
